# experimental.target: T1, recombinant human EGFR extracellular domain with 6xHis (human, UniProt P00533 25-645)
# T1 construct: In-house produced; also called 6xHis EGFR ECD; soluble human EGFR ECD; not shown: 6xHis tag
# protocol.details: SPR competition, EGFR ECD first saturated with mix N=6 1261+1347+992+1024+1030+1361
property.measured: % inhibition (%)

# binder, property.measured, observed.result
measured = [
    ("antibody 1024 (antibody, human IgG1, kappa, V domains shown, Chimeric IgG1 kappa) VH: QVQLQQPGAELVEPGGSVKLSCKASGYTFTSHWMHWVKQRPGQGLEWIGEINPSSGRNNYNEKFKSKATLTVDKSSSTAYMQFSSLTSEDSAVYYCVRYYGYDEAMDYWGQGTSVTVSS VL: DIVMTQAAFSNPVTLGTSASISCRSSKSLLHSNGITYLYWYLQKPGQSPQLLIYQMSNLASGVPDRFSSSGSGTDFTLRISRVEAEDVGVYYCAQNLELPYTFGGGTKLEIKR", "% inhibition", 113),
]

Attribution: patent US20110135636A1
